Data provenance is patent US20200017496A1.

- System: Klebsiella pneumoniae (KPN) isolates
- Measurement Protocol: MIC of compounds alone and combined with antibacterials, broth microdilution (CLSI)
- Format: cell-based
- Condition Description: KPN 200047; AF1 @ 4 μg/mL
- Protocol: Method 2: MIC of Compounds Alone and Combined with Antibacterials Against Bacterial Isolates. Compounds of the present invention were assessed against genotyped bacterial strains (Table 3, 4) alone or in combination with an antibacterial (Table 2). […] The MIC of the compounds was defined as the lowest concentration of said compounds that prevented bacterial growth as read by visual inspection. […]
Property Name: MIC ATB in combination

Reference set, count: 4
CC(C)(O/N=C(\C(=O)N[C@@H]1C(=O)N2C(C(=O)[O-])=C(C[n+]3ccccc3)CS[C@H]12)c1csc(N)n1)C(=O)O | <=0.25 μg/mL
CO/N=C(\C(=O)N[C@@H]1C(=O)N2C(C(=O)O)=C(COC(N)=O)CS[C@H]12)c1ccco1 | 2 µg/mL
C=CC1=C(C(=O)O)N2C(=O)[C@@H](NC(=O)/C(=N\OCC(=O)O)c3csc(N)n3)[C@H]2SC1 | <=0.25 μg/mL
CC1(C)S[C@@H]2[C@H](NC(=O)[C@H](N)c3ccc(O)cc3)C(=O)N2[C@H]1C(=O)O | 16 µg/mL

Which MIC ATB in combination is listed for C=CC1=C(C(=O)O)N2C(=O)[C@@H](NC(=O)/C(=N\O)c3csc(N)n3)[C@H]2SC1 ?
<=0.25 μg/mL

Which MIC ATB in combination is listed for COCC1=C(C(=O)O)N2C(=O)[C@@H](NC(=O)/C(=N\OC)c3csc(N)n3)[C@H]2SC1 ?
<=0.25 μg/mL

* * *

- Measurement Protocol: Aqueous solubility by visual inspection (Method 12)
- Condition Description: water, thermodynamic from solid
Class 1: solubility at least 4000 µg/mL. Class 0: solubility below 4000 µg/mL.

Could you tell me if the measured solubility of COCC1(OC(=O)C(F)(F)ON2C(=O)N3C[C@H]2CC[C@H]3C(N)=O)CCOCC1 reaches 4000 µg/mL or more?
0

Could you tell me if the measured solubility of CC1(OC(=O)C(F)(F)ON2C(=O)N3C[C@H]2CC[C@H]3C(N)=O)CCOCC1 reaches 4000 µg/mL or more?
0

Could you tell me if the measured solubility of COCCOCC(C)(C)OC(=O)C(F)(F)ON1C(=O)N2C[C@H]1CC[C@H]2C(N)=O reaches 4000 µg/mL or more?
1

Could you tell me if the measured solubility of COCC(C)(C)OC(=O)C(F)(F)ON1C(=O)N2C[C@H]1CC[C@H]2C(N)=O reaches 4000 µg/mL or more?
1

Could you tell me if the measured solubility of COCC(C)(COC)OC(=O)C(F)(F)ON1C(=O)N2C[C@H]1CC[C@H]2C(N)=O reaches 4000 µg/mL or more?
1

Could you tell me if the measured solubility of COCCCC(C)(C)OC(=O)C(F)(F)ON1C(=O)N2C[C@H]1CC[C@H]2C(N)=O reaches 4000 µg/mL or more?
1

* * *

- Test system: Klebsiella pneumoniae (KPN) isolates
- Measurement Protocol: MIC of compounds alone and combined with antibacterials, broth microdilution (CLSI)
- Assay type: cell-based
- Condition Description: KPN UFR66; AF1 @ 4 μg/mL
So I've got a bunch of compounds here, and I need their MIC ATB in combination values.
Answer shape: numeric part, then the unit.

Which MIC ATB in combination is listed for C=CC1=C(C(=O)O)N2C(=O)[C@@H](NC(=O)/C(=N\O)c3csc(N)n3)[C@H]2SC1 [CDR, Cefdinir] ?
2 µg/mL

Which MIC ATB in combination is listed for C=CC1=C(C(=O)O)N2C(=O)[C@@H](NC(=O)/C(=N\OCC(=O)O)c3csc(N)n3)[C@H]2SC1 [FIX, Cefixime] ?
1 µg/mL

Which MIC ATB in combination is listed for CO/N=C(\C(=O)N[C@@H]1C(=O)N2C(C(=O)O)=C(COC(N)=O)CS[C@H]12)c1ccco1 [FUR, Cefuroxime] ?
32 µg/mL

Which MIC ATB in combination is listed for CC(C)(O/N=C(\C(=O)N[C@@H]1C(=O)N2C(C(=O)[O-])=C(C[n+]3ccccc3)CS[C@H]12)c1csc(N)n1)C(=O)O [CAZ, Ceftazidime] ?
8 µg/mL

Which MIC ATB in combination is listed for CC1(C)S[C@@H]2[C@H](NC(=O)[C@H](N)c3ccc(O)cc3)C(=O)N2[C@H]1C(=O)O [AMX, Amoxicillin] ?
256 µg/mL

Which MIC ATB in combination is listed for COCC1=C(C(=O)O)N2C(=O)[C@@H](NC(=O)/C(=N\OC)c3csc(N)n3)[C@H]2SC1 [POD, Cefpodoxime] ?
2 µg/mL

* * *

- Measurement Protocol: in vivo
- Parameters: species or system Swiss Mouse
- Condition Description: male, Swiss, mouse, in vivo, po, 10 mg/kg
Property Name: bioavailability

Which bioavailability is listed for C=CC1=C(C(=O)O)N2C(=O)[C@@H](NC(=O)/C(=N\OCC(=O)O)c3csc(N)n3)[C@H]2SC1 [FIX, Cefixime] ?
45%

* * *

So I've got a bunch of molecules here, and I need their Hydrolysis at 1 mg/ml at room Temperature (NMR) T10 (10% degradation time) values.
- Measurement Protocol: Hydrolysis kinetics in buffers at room temperature by 19F-NMR, 1 mg/ml (Method 9)
- Type: physicochemical
- Condition Description: Phosphate 10 mM pH 7.4
Dear colleague, please return just the value in min, with no unit written.

Which Hydrolysis at 1 mg/ml at room Temperature (NMR) T10 (10% degradation time) is listed for COCC(C)(COC)OC(=O)C(F)(F)ON1C(=O)N2C[C@H]1CC[C@H]2C(N)=O ?
12

Which Hydrolysis at 1 mg/ml at room Temperature (NMR) T10 (10% degradation time) is listed for COCC(C)(C)OC(=O)C(F)(F)ON1C(=O)N2C[C@H]1CC[C@H]2C(N)=O ?
37

Which Hydrolysis at 1 mg/ml at room Temperature (NMR) T10 (10% degradation time) is listed for COCCOCC(C)(C)OC(=O)C(F)(F)ON1C(=O)N2C[C@H]1CC[C@H]2C(N)=O ?
21

Which Hydrolysis at 1 mg/ml at room Temperature (NMR) T10 (10% degradation time) is listed for COCCCC(C)(C)OC(=O)C(F)(F)ON1C(=O)N2C[C@H]1CC[C@H]2C(N)=O ?
7

Which Hydrolysis at 1 mg/ml at room Temperature (NMR) T10 (10% degradation time) is listed for COCC1(OC(=O)C(F)(F)ON2C(=O)N3C[C@H]2CC[C@H]3C(N)=O)CCOCC1 ?
15

Which Hydrolysis at 1 mg/ml at room Temperature (NMR) T10 (10% degradation time) is listed for CC1(OC(=O)C(F)(F)ON2C(=O)N3C[C@H]2CC[C@H]3C(N)=O)CCOCC1 ?
40

* * *

So I've got a bunch of molecules here, and I need their MIC values.
- Tested on: Enterobacter aerogenes (EAE) isolates
- Measurement Protocol: MIC of compounds alone and combined with antibacterials, broth microdilution (CLSI)
- Type: cell-based
- Condition Description: Klebsiella aerogenes

Which MIC is listed for CO/N=C(\C(=O)N[C@@H]1C(=O)N2C(C(=O)O)=C(COC(N)=O)CS[C@H]12)c1ccco1 ?
> 256 µg/mL

Which MIC is listed for N#C[C@@H]1CC[C@@H]2CN1C(=O)N2OC(F)(F)C(=O)[O-].[Na+] ?
> 32 µg/mL

Which MIC is listed for CC1(C)S[C@@H]2[C@H](NC(=O)[C@H](N)c3ccc(O)cc3)C(=O)N2[C@H]1C(=O)O ?
> 128 µg/mL

Which MIC is listed for CC(C)(O/N=C(\C(=O)N[C@@H]1C(=O)N2C(C(=O)[O-])=C(C[n+]3ccccc3)CS[C@H]12)c1csc(N)n1)C(=O)O ?
> 256 µg/mL

* * *

- Test system: Enterobacter cloacae (ECL) isolates
- Measurement Protocol: MIC of compounds alone and combined with antibacterials, broth microdilution (CLSI)
- Type: cell-based
- Condition Description: ECL UFR194; AF1 @ 4 μg/mL
Property Name: MIC ATB in combination (mg/L)
Dear colleague, please return just the value in mg/L, with no unit written.

Which MIC ATB in combination is listed for CO/N=C(\C(=O)N[C@@H]1C(=O)N2C(C(=O)O)=C(COC(N)=O)CS[C@H]12)c1ccco1 [FUR, Cefuroxime] ?
32

Which MIC ATB in combination is listed for C=CC1=C(C(=O)O)N2C(=O)[C@@H](NC(=O)/C(=N\OCC(=O)O)c3csc(N)n3)[C@H]2SC1 [FIX, Cefixime] ?
1

Which MIC ATB in combination is listed for CC1(C)S[C@@H]2[C@H](NC(=O)[C@H](N)c3ccc(O)cc3)C(=O)N2[C@H]1C(=O)O [AMX, Amoxicillin] ?
256

Which MIC ATB in combination is listed for CC(C)(O/N=C(\C(=O)N[C@@H]1C(=O)N2C(C(=O)[O-])=C(C[n+]3ccccc3)CS[C@H]12)c1csc(N)n1)C(=O)O [CAZ, Ceftazidime] ?
0.5

Which MIC ATB in combination is listed for COCC1=C(C(=O)O)N2C(=O)[C@@H](NC(=O)/C(=N\OC)c3csc(N)n3)[C@H]2SC1 [POD, Cefpodoxime] ?
1

Which MIC ATB in combination is listed for C=CC1=C(C(=O)O)N2C(=O)[C@@H](NC(=O)/C(=N\O)c3csc(N)n3)[C@H]2SC1 [CDR, Cefdinir] ?
2
